Please provide measured AUC(0-t) for the entries that follow.
# Assay Explanation: AUC (0 to 24 hrs) in overnight fasted mouse at 10 mg/kg, po
# Format: ADME, organism-based
# Condition Set: in vivo
Unit µg·h/mL implied. Number only.

Task: Report AUC(0-t) for `O=c1[nH]ncc2c(-c3cnc4cc(F)ccn34)ccc(Nc3ccc(C4CCOCC4)c(CN4CC[C@H](F)C4)n3)c12` please.
Result: 0.506

Task: Try this molecule next: `CN(C)Cc1nc(Nc2ccc(-c3cnc4cc(F)ccn34)c3c2C(=O)NC3)ccc1C1CCOCC1`
Result: 1.35

Task: Try this molecule next: `CN(C)Cc1nc(Nc2ccc(-c3cnc4cc(F)ccn34)c3cc[nH]c(=O)c23)ccc1C1CCOCC1`
Result: 0.892

Task: Try this molecule next: `O=c1[nH]ccc2c(-c3cnc4cc(F)ccn34)ccc(Nc3ccc(C4CCOCC4)c(CN4CC[C@H](F)C4)n3)c12`
Result: 4.14

Task: Try this molecule next: `CN(C)Cc1nc(Nc2ccc(-c3cnc4cc(F)ccn34)c3cn[nH]c(=O)c23)ccc1C1CCOCC1`
Result: 0.477

---

# Target: Mitogen-activated protein kinase kinase kinase kinase 1 (Homo sapiens)
# Assay Explanation: Inhibition of N-terminal DYKDDDDK recombinant human HPK1 (1 to 346 residues) expressed in Sf21 insect cells preincubated for 10 min followed by fluorescein PKC and ATP addition and measured after 90 min by Envision2104 Multilabel Reader analysis
Please provide measured pIC50 for the entries that follow.
Remember, pIC50 is on a log scale: it is -log10 of the molar concentration.

Task: Report pIC50 for `CN(C)Cc1nc(Nc2ccc(-c3cnc4cc(F)ccn34)c3c2C(=O)NCC3)ccc1C1CCOCC1` please.
Result: 6.28

Task: Try this compound next: `CN(C)Cc1nc(Nc2ccc(-c3cnc4cc(F)ccn34)c3cn[nH]c(=O)c23)ccc1C1CCOCC1`
Result: 8.16

Task: Try this compound next: O=c1[nH]ncc2c(-c3cnc4cc(F)ccn34)ccc(Nc3ccc(C4CCOCC4)c(CN4CCC(O)C4)n3)c12 (centres undefined)
Result: 7.41

---

# Assay Explanation: Cmax in overnight fasted mouse at 10 mg/kg, po
# Type: ADME, organism-based
# Condition Set: in vivo
# Cmax >= 700 ng/mL gives 1 (yes), anything below gives 0 (no)

Task: Could you verify whether the entry `CN(C)Cc1nc(Nc2ccc(-c3cnc4cc(F)ccn34)c3cn[nH]c(=O)c23)ccc1C1CCOCC1` shows Cmax of no less than 700 ng/mL?
Result: 1 (yes)

Task: Try this compound next: `O=c1[nH]ncc2c(-c3cnc4cc(F)ccn34)ccc(Nc3ccc(C4CCOCC4)c(CN4CC[C@H](F)C4)n3)c12`
Result: 0 (no)

Task: Try this compound next: `CN(C)Cc1nc(Nc2ccc(-c3cnc4cc(F)ccn34)c3c2C(=O)NC3)ccc1C1CCOCC1`
Result: 0 (no)

Task: Try this compound next: `O=c1[nH]ccc2c(-c3cnc4cc(F)ccn34)ccc(Nc3ccc(C4CCOCC4)c(CN4CC[C@H](F)C4)n3)c12`
Result: 1 (yes)

Task: Try this compound next: `CN(C)Cc1nc(Nc2ccc(-c3cnc4cc(F)ccn34)c3cc[nH]c(=O)c23)ccc1C1CCOCC1`
Result: 0 (no)

---

Please provide measured clearance for the entries that follow.
# Assay Explanation: Plasma clearance in overnight fasted mouse at 1 mg/kg, iv
# Type: ADME, organism-based
Kindly report the value followed by its unit.

Task: Report clearance for `CN(C)Cc1nc(Nc2ccc(-c3cnc4cc(F)ccn34)c3cc[nH]c(=O)c23)ccc1C1CCOCC1` please.
Result: 159 mL/min/kg

Task: Try this compound next: `O=c1[nH]ccc2c(-c3cnc4cc(F)ccn34)ccc(Nc3ccc(C4CCOCC4)c(CN4CC[C@H](F)C4)n3)c12`
Result: 46 mL/min/kg

Task: Try this compound next: `O=c1[nH]ncc2c(-c3cnc4cc(F)ccn34)ccc(Nc3ccc(C4CCOCC4)c(CN4CC[C@H](F)C4)n3)c12`
Result: 104 mL/min/kg

Task: Try this compound next: `CN(C)Cc1nc(Nc2ccc(-c3cnc4cc(F)ccn34)c3c2C(=O)NC3)ccc1C1CCOCC1`
Result: 269 mL/min/kg

Task: Try this compound next: `CN(C)Cc1nc(Nc2ccc(-c3cnc4cc(F)ccn34)c3cn[nH]c(=O)c23)ccc1C1CCOCC1`
Result: 263 mL/min/kg

---

# Assay Explanation: Half life in overnight fasted mouse at 1 mg/kg, iv
# Assay type: ADME, organism-based
# Condition Set: in vivo
Please provide measured half-life for the entries that follow.
Unit min implied. Number only.

Task: Report half-life for `CN(C)Cc1nc(Nc2ccc(-c3cnc4cc(F)ccn34)c3cn[nH]c(=O)c23)ccc1C1CCOCC1` please.
Result: 12

Task: Try this molecule next: `O=c1[nH]ccc2c(-c3cnc4cc(F)ccn34)ccc(Nc3ccc(C4CCOCC4)c(CN4CC[C@H](F)C4)n3)c12`
Result: 36

Task: Try this molecule next: `CN(C)Cc1nc(Nc2ccc(-c3cnc4cc(F)ccn34)c3cc[nH]c(=O)c23)ccc1C1CCOCC1`
Result: 24

Task: Try this molecule next: `CN(C)Cc1nc(Nc2ccc(-c3cnc4cc(F)ccn34)c3c2C(=O)NC3)ccc1C1CCOCC1`
Result: 30

Task: Try this molecule next: `O=c1[nH]ncc2c(-c3cnc4cc(F)ccn34)ccc(Nc3ccc(C4CCOCC4)c(CN4CC[C@H](F)C4)n3)c12`
Result: 30

---

# Target: Mitogen-activated protein kinase kinase kinase kinase 1 (Homo sapiens, UniProt Q92918)
# Sequence (Q92918 whole entry, the tested form may be a part): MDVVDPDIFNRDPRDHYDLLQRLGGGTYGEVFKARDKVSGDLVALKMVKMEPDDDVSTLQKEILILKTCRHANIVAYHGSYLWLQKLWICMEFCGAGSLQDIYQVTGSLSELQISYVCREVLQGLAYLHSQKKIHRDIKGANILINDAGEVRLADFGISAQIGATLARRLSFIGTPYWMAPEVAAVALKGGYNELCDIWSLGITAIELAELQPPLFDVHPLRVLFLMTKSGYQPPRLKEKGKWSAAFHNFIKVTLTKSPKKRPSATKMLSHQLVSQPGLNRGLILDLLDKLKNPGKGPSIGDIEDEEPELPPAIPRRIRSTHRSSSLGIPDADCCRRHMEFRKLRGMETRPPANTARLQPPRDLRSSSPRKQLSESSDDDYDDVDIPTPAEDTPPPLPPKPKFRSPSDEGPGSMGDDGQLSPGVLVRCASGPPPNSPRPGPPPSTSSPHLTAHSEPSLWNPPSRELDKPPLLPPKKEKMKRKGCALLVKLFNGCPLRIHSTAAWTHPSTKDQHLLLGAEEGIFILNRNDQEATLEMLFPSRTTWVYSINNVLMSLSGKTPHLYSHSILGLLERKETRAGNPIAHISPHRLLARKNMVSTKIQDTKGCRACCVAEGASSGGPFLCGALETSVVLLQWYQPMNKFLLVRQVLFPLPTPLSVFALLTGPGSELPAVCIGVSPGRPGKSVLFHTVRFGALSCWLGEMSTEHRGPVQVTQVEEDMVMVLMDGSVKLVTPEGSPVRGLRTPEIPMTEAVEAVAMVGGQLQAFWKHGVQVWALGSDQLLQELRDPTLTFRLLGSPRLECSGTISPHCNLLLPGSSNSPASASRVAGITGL
# Assay Explanation: Inhibition of HPK1 in human Jurkat cells assessed as reduction in SLP76 phosphorylation pretreated for 1 hr followed by anti-CD3 addition and measured after 15 min by ELISA method
# Format: cell-based
Please provide measured pEC50 for the entries that follow.
Remember, pEC50 is on a log scale: it is -log10 of the molar concentration.

Task: Report pEC50 for `O=c1[nH]ncc2c(-c3cnc4cc(F)ccn34)ccc(Nc3ccc(C4CCOCC4)c(CN4CC[C@@H](F)C4)n3)c12` please.
Result: 7.26

Task: Try this molecule next: `CN(C)Cc1nc(Nc2ccc(-c3cnc4cc(F)ccn34)c3cc[nH]c(=O)c23)ccc1C1CCOCC1`
Result: 7.12

Task: Try this molecule next: COC1CCN(Cc2nc(Nc3ccc(-c4cnc5cc(F)ccn45)c4cn[nH]c(=O)c34)ccc2C2CCOCC2)C1 (stereo unspecified)
Result: 7.49

Task: Try this molecule next: `CN(C)Cc1nc(Nc2ccc(-c3cnc4cc(F)ccn34)c3cn[nH]c(=O)c23)ccc1C1CCOCC1`
Result: 7.72

Task: Try this molecule next: `O=c1[nH]ccc2c(-c3cnc4cc(F)ccn34)ccc(Nc3ccc(C4CCOCC4)c(CN4CC[C@H](F)C4)n3)c12`
Result: 7.39

Task: Try this molecule next: `O=c1[nH]ncc2c(-c3cnc4cc(F)ccn34)ccc(Nc3ccc(C4CCOCC4)c(CN4CC[C@H](F)C4)n3)c12`
Result: 7.85

---

# Target: Mitogen-activated protein kinase kinase kinase kinase 5 (Homo sapiens, UniProt Q9Y4K4)
# Sequence (Q9Y4K4 whole entry): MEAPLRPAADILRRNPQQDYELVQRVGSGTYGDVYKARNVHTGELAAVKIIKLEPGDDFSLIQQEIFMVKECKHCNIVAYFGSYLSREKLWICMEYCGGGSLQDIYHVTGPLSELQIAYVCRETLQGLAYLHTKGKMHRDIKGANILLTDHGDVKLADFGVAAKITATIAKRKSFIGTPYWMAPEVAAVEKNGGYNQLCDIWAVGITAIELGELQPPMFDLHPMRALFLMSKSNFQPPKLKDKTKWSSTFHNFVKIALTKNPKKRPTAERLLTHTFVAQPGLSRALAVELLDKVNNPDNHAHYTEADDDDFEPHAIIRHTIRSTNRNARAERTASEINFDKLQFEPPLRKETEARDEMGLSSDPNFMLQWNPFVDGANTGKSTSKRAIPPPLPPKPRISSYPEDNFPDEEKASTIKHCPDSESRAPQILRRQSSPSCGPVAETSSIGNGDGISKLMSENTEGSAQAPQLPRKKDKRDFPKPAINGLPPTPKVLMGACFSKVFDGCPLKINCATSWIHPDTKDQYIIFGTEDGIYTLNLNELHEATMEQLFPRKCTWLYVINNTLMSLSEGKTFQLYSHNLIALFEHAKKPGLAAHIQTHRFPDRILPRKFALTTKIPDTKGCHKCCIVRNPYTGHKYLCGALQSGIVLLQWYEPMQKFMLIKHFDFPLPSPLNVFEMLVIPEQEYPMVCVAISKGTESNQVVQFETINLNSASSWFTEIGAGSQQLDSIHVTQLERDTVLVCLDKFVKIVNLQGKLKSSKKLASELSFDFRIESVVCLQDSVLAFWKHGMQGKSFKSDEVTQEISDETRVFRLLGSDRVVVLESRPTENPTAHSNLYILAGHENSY
# Assay Explanation: Inhibition of GST-tagged recombinant human full length MAP4K5 expressed in insect cells preincubated for 10 min followed by fluorescein PKC and ATP addition and measured after 90 min by Envision2104 Multilabel Reader analysis
Measurement Name: IC50 (nM)
Unit nM implied. Number only.

Task: Param readout= IC50; system= Mitogen-activated protein kinase kinase kinase kinase 5 (Homo sapiens, UniProt Q9Y4K4); entry= `O=c1[nH]ccc2c(-c3cnc4cc(F)ccn34)ccc(Nc3ccc(C4CCOCC4)c(CN4CC[C@H](F)C4)n3)c12` ; returns value.
Result: 104

---

# Target: Mitogen-activated protein kinase kinase kinase kinase 1 (Homo sapiens, UniProt Q92918)
# Assay Explanation: Inhibition of HPK1 in human T cells assessed as increase in IL-2 secretion measured after 24 hrs by ELISA method
# Type: cell-based, T-cell
Measurement Name: EC50 (nM)
Unit nM implied. Number only.

Task: Report EC50 for O=c1[nH]ncc2c(-c3cnc4cc(F)ccn34)ccc(Nc3ccc(C4CCOCC4)c(CN4CCC(O)C4)n3)c12 (stereo not drawn) please.
Result: 223

Task: Try this compound next: COC1CCN(Cc2nc(Nc3ccc(-c4cnc5cc(F)ccn45)c4cn[nH]c(=O)c34)ccc2C2CCOCC2)C1 (stereo not drawn)
Result: 254

Task: Try this compound next: `O=c1[nH]ccc2c(-c3cnc4cc(F)ccn34)ccc(Nc3ccc(C4CCOCC4)c(CN4CC[C@H](F)C4)n3)c12`
Result: 108

---

# Target: Mitogen-activated protein kinase kinase kinase kinase 3 (Homo sapiens)
# Sequence (Q8IVH8 whole entry, the tested form may be a part): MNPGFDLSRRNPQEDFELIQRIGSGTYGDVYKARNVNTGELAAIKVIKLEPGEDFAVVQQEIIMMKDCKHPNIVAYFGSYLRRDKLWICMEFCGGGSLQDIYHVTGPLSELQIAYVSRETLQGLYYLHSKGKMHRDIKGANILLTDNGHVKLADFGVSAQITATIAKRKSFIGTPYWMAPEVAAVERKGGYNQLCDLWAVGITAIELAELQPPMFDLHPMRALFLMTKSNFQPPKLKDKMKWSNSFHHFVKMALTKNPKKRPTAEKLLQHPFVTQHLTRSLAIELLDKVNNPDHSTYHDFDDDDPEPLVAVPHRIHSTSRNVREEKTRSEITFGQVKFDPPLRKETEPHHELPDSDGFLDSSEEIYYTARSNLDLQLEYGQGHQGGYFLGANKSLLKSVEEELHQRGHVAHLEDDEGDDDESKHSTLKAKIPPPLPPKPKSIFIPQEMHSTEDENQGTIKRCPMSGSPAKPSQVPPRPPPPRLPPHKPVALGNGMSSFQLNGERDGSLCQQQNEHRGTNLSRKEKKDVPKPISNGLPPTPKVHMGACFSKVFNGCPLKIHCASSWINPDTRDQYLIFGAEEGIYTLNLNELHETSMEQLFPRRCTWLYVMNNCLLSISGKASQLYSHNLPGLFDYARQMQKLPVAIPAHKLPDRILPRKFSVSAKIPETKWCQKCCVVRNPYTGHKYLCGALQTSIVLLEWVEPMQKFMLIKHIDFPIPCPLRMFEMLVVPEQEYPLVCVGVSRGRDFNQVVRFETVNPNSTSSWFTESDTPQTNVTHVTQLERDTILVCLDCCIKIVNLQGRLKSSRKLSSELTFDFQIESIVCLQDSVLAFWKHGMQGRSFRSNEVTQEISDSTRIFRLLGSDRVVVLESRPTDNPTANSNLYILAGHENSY
# Assay Explanation: Inhibition of GST-tagged recombinant human MAP4K3 (1 to 380 residues) extracted from Baculovirus infected Sf9 insect cells preincubated for 10 min followed by fluorescein PKC and ATP addition and measured after 90 min by Envision2104 Multilabel Reader analysis
Measurement Name: IC50 (nM)
Unit nM implied. Number only.

Task: Report IC50 for `O=c1[nH]ccc2c(-c3cnc4cc(F)ccn34)ccc(Nc3ccc(C4CCOCC4)c(CN4CC[C@H](F)C4)n3)c12` please.
Result: 85
